meta.source: ChEMBL document CHEMBL4033670

Recorded measurements of inhibition, one per entry
assay: Antioxidant activity assessed as inhibition of DPPH radical generation at 3 mg/ml after 20 mins under dark condition by UV-Visible spectrophotometric analysis relative to control; type: functional

COMPOUND: CCC(C)C(C(=O)Nc1ccc(C(C)=O)cc1)N(C(=O)c1ccccc1)S(=O)(=O)c1ccc(C)cc1 (configuration not stated)
inhibition [%]: 33.4

COMPOUND: CC(=O)c1ccc(NC(=O)C2CC(O)CN2S(=O)(=O)c2ccc(C)cc2)cc1 (configuration not stated)
inhibition [%]: 12.7

COMPOUND: CC(=O)c1ccc(NC(=O)C(Cc2ccccc2)N(C(=O)c2ccccc2)S(=O)(=O)c2ccccc2)cc1 (configuration not stated)
inhibition [%]: 7.21

COMPOUND: CC(=O)c1ccc(NC(=O)C(Cc2c[nH]c3ccccc23)N(C(=O)c2ccccc2)S(=O)(=O)c2ccccc2)cc1 (configuration not stated)
inhibition [%]: 47

COMPOUND: CC(=O)c1ccc(NC(=O)C(Cc2c[nH]c3ccccc23)N(C(=O)c2ccccc2)S(=O)(=O)c2ccc(C)cc2)cc1 (configuration not stated)
inhibition [%]: 39.5

COMPOUND: CC(=O)c1ccc(NC(=O)CN(C(=O)c2ccccc2)S(=O)(=O)c2ccc([N+](=O)[O-])cc2)cc1
inhibition [%]: 20.6

COMPOUND: CC(=O)c1ccc(NC(=O)C(C(C)C)N(C(=O)c2ccccc2)S(=O)(=O)c2ccc([N+](=O)[O-])cc2)cc1 (configuration not stated)
inhibition [%]: 29.8
